Test system: Mouse microglia
Test: Cell viability (CellTiter-Glo), mouse microglia
Assay type: cell-based
Details: 50 μM, CellTiter-Glo
Entries annotated with measured Cell viability (%) Mouse microglia 50 μM

# compound, assayed_target, val
data = [
    ("C#Cc1ccc2c(c1)C(c1ccccc1F)=NC(C)c1c(C(=S)N(C)C)ncn1-2 (stereo not drawn) [GL-III-85]", "Mouse microglia", "84 ± 12%"),
    ("CCOC(=O)c1ncn2c1[C@@H](C)N=C(c1ccccc1F)c1cc(C3CC3)ccc1-2 [GL-III-42]", "Mouse microglia", "82 ± 10%"),
    ("C#Cc1ccc2c(c1)C(c1ccccc1F)=N[C@@H](C)C(=O)N2 [GL-I-64]", "Mouse microglia", "81 ± 5%"),
    ("C#Cc1ccc2c(c1)C(c1ccccc1)=NCc1c(-c3cnco3)ncn1-2 [KRM-II-82]", "Mouse microglia", "100 ± 6%"),
    ("CC(C)c1noc(-c2ncn3c2[C@@H](C)N=C(c2ccccc2F)c2cc(Br)ccc2-3)n1 [GL-IV-01]", "Mouse microglia", "100 ± 9%"),
    ("C#Cc1ccc2c(c1)C(c1ccccc1F)=NC(C)c1c(C(=S)NCC)ncn1-2 (stereo not drawn) [GL-III-86]", "Mouse microglia", "99 ± 15%"),
]

Give its Cell viability (%) Mouse microglia 50 μM value. Item: C[C@@H]1N=C(c2ccccc2F)c2cc(Br)ccc2-n2cnc(-c3cnco3)c21 [GL-III-76]
80 ± 2%

Give its Cell viability (%) Mouse microglia 50 μM value. Item: C#Cc1ccc2c(c1)C(c1ccccc1F)=NC(C)C(=O)N2C (stereo not drawn) [GL-III-24]
98 ± 5%

Give its Cell viability (%) Mouse microglia 50 μM value. Item: CC1N=C(c2ccccc2F)c2cc(Br)ccc2-n2cnc(C=O)c21 (stereo not drawn) [GL-III-75]
87 ± 7%

###

Biological target: α3β3γ2 GABAAR (Homo sapiens, UniProt P18507+P34903)
Sequence (P34903 29-492): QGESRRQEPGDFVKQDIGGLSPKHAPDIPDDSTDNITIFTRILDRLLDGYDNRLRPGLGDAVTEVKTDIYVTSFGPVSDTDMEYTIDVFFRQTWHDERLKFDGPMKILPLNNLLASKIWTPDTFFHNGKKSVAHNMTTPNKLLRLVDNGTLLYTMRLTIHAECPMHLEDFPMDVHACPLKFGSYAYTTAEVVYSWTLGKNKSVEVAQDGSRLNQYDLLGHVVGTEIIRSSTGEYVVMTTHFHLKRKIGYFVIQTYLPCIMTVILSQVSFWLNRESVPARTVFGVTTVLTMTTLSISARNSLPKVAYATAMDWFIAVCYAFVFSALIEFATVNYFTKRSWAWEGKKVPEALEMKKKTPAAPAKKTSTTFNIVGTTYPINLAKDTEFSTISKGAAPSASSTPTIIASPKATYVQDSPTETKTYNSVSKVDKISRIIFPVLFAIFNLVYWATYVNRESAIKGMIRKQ
Sequence (P28472 26-473 partner): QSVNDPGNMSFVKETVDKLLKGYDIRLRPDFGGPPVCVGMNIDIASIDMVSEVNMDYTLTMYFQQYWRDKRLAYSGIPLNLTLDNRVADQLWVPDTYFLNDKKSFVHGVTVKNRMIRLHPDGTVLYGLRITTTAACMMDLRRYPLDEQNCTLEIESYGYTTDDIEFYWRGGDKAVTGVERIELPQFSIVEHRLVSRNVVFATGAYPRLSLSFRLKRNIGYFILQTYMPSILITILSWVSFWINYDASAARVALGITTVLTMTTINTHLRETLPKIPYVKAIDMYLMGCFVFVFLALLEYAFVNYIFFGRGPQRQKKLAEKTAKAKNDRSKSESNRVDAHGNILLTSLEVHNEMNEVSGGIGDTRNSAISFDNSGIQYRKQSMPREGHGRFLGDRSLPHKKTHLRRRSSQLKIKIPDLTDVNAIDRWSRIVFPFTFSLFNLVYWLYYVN
Sequence (P18507 40-475): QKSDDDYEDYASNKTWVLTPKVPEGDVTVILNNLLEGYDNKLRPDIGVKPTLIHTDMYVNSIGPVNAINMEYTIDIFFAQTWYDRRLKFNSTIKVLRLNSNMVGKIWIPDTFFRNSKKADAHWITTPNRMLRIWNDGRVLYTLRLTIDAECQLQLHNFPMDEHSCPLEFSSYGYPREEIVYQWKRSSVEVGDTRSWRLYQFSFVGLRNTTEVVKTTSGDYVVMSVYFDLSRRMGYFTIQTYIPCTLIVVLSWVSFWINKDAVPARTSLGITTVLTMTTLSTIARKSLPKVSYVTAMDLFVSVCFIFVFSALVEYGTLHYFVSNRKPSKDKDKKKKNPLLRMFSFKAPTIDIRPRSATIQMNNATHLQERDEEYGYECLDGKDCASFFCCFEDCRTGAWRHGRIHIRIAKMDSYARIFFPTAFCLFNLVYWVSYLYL
Experiment: Membrane potential red dye assay
assay_endpoint: EC50 (µM)
Write down the numeric answer in µM and omit the unit.

Give its EC50 value. Item: C#Cc1ccc2c(c1)C(c1ccccc1F)=N[C@H](C)c1c(-c3nc(C(C)C)no3)ncn1-2
14.3

###

System: RAW macrophages
Assay: NO production (Griess assay), LPS/IFNγ-activated RAW264.7 macrophages
Type: cell-based, mouse
Settings: 10 μM, 24 hours, 1 μM GABA, LPS/IFNγ
assay_endpoint: Inhibition of NO production (%) RAW macrophages 10 μM
Write down the numeric answer in % and omit the unit.

Known results for compounds:
# compound, units, val
data = [
    ("C#Cc1ccc2c(c1)C(c1ccccn1)=NC(C)C(=O)N2C (stereo not drawn)", "%", 10),
    ("CC1N=C(c2ccccc2F)c2cc(C#C[Si](C)(C)C)ccc2-n2cnc(-c3cnco3)c21 (stereo not drawn) [GL-III-77]", "%", 29),
    ("C#Cc1ccc2c(c1)C(c1ccccc1F)=NCc1c(C(=O)O)ncn1-2", "%", 0),
    ("C#Cc1ccc2c(c1)C(c1ccccc1F)=NC(C)c1c(C(=S)NC)ncn1-2 (stereo not drawn)", "%", 10),
]

Requested read-out Inhibition of NO production (%) RAW macrophages 10 μM, target or system RAW macrophages, entry C#Cc1ccc2c(c1)C(c1ccccc1F)=NC(C)c1c(C(=S)NCC)ncn1-2 (stereo not drawn)
7

Requested read-out Inhibition of NO production (%) RAW macrophages 10 μM, target or system RAW macrophages, entry C#Cc1ccc2c(c1)C(c1ccccc1F)=NCc1c(C(=O)OCCCO)ncn1-2
5

Requested read-out Inhibition of NO production (%) RAW macrophages 10 μM, target or system RAW macrophages, entry C#Cc1ccc2c(c1)C(c1ccccc1)=NCC(=O)N2
8

Requested read-out Inhibition of NO production (%) RAW macrophages 10 μM, target or system RAW macrophages, entry C#Cc1ccc2c(c1)C(c1ccccn1)=N[C@H](C)C(=O)N2
1

Requested read-out Inhibition of NO production (%) RAW macrophages 10 μM, target or system RAW macrophages, entry CC1N=C(c2ccccc2F)c2cc(Br)ccc2-n2cnc(C=O)c21 (stereo not drawn) [GL-III-35]
0

###

System: HEPG2
Experiment: Viability assay (CellTiter-Glo), HEPG2
Type: cell-based, human
Conditions: 120 μM, CellTiter-Glo
assay_endpoint: Cell viability (%) HEPG2 120 μM
Write down the numeric answer in % and omit the unit.

# compound, Cell viability (%) HEPG2 120 μM
records = [
    ("C#Cc1ccc2c(c1)C(c1ccccc1F)=N[C@@H](C)c1c(-c3cnco3)ncn1-2", 100),
    ("C#Cc1ccc2c(c1)C(c1ccccn1)=NCc1c(C(=O)O)ncn1-2", 100),
    ("CC1N=C(c2ccccc2F)c2cc(C#C[Si](C)(C)C)ccc2-n2cnc(-c3cnco3)c21 (stereo not drawn) [GL-III-72]", 100),
    ("CCOC(=O)c1ncn2c1CN=C(c1ccccn1)c1cc(C3CC3)ccc1-2", 100),
]

Requested read-out Cell viability (%) HEPG2 120 μM, target or system HEPG2, entry C#Cc1ccc2c(c1)C(c1ccccn1)=NC(C)C(=O)N2C (stereo not drawn)
82

Requested read-out Cell viability (%) HEPG2 120 μM, target or system HEPG2, entry CC1N=C(c2ccccc2F)c2cc(Br)ccc2-n2cnc(C=O)c21 (stereo not drawn) [GL-III-35]
98

Requested read-out Cell viability (%) HEPG2 120 μM, target or system HEPG2, entry C[C@H]1N=C(c2ccccn2)c2cc(Br)ccc2-n2cnc(C(=O)O)c21
100

Requested read-out Cell viability (%) HEPG2 120 μM, target or system HEPG2, entry CC1N=C(c2ccccc2F)c2cc(Br)ccc2-n2cnc(C(=O)[O-])c21.[Na+] (stereo not drawn)
80

Requested read-out Cell viability (%) HEPG2 120 μM, target or system HEPG2, entry C#Cc1ccc2c(c1)C(c1ccccc1)=NCC(=O)N2
100

Requested read-out Cell viability (%) HEPG2 120 μM, target or system HEPG2, entry C#Cc1ccc2c(c1)C(c1ccccc1F)=N[C@H](C)c1c(-c3nc(CC)no3)ncn1-2
98

Requested read-out Cell viability (%) HEPG2 120 μM, target or system HEPG2, entry CC1N=C(c2ccccc2F)c2cc(Br)ccc2-n2cnc(C=O)c21 (stereo not drawn) [GL-III-75]
74

Requested read-out Cell viability (%) HEPG2 120 μM, target or system HEPG2, entry C#Cc1ccc2c(c1)C(c1ccccc1F)=NCc1c(-c3nc(C)no3)ncn1-2
90

Requested read-out Cell viability (%) HEPG2 120 μM, target or system HEPG2, entry Cc1noc(-c2ncn3c2[C@@H](C)N=C(c2ccccc2F)c2cc(C4CC4)ccc2-3)n1
16

Requested read-out Cell viability (%) HEPG2 120 μM, target or system HEPG2, entry CCc1noc(-c2ncn3c2[C@@H](C)N=C(c2ccccc2F)c2cc(C4CC4)ccc2-3)n1
39

Requested read-out Cell viability (%) HEPG2 120 μM, target or system HEPG2, entry C#Cc1ccc2c(c1)C(c1ccccc1F)=NCc1c(C(=O)O)ncn1-2
100

Requested read-out Cell viability (%) HEPG2 120 μM, target or system HEPG2, entry CC(C)c1noc(-c2ncn3c2[C@@H](C)N=C(c2ccccc2F)c2cc(Br)ccc2-3)n1
100

Requested read-out Cell viability (%) HEPG2 120 μM, target or system HEPG2, entry CCc1noc(-c2ncn3c2CN=C(c2ccccn2)c2cc(Br)ccc2-3)n1
93

Requested read-out Cell viability (%) HEPG2 120 μM, target or system HEPG2, entry C#Cc1ccc2c(c1)C(c1ccccc1F)=NC(C)c1c(C(=S)NCC)ncn1-2 (stereo not drawn)
100

###

Entries annotated with measured Cell viability (%) Mouse microglia 50 μM
Test system: Mouse microglia
Assay: Cell viability (CellTiter-Glo), mouse microglia
Type: cell-based
Settings: 50 μM, CellTiter-Glo
Answer as a quantity: numeral, then unit.

Give its Cell viability (%) Mouse microglia 50 μM value. Item: C#Cc1ccc2c(c1)C(c1ccccc1)=NCc1c(C(=O)NC)ncn1-2
100 ± 8%

###

Molecular target: σ2 receptor (Homo sapiens, UniProt Q5BJF2)
Sequence (Q5BJF2 whole entry, species assumed): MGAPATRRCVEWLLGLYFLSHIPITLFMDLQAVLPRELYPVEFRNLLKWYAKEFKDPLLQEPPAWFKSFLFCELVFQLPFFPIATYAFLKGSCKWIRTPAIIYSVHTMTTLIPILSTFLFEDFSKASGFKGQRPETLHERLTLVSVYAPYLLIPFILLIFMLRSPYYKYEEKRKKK
Assay: σ2 receptor binding (3H-ditolylguanidine, HEK cell lysate)
assay_endpoint: IC50

Give its IC50 value. Item: C#Cc1ccc2c(c1)C(c1ccccc1F)=N[C@H](C)c1c(-c3nc(C(C)C)no3)ncn1-2
5.2 µM

###

System: HEPG2
Test: Viability assay (CellTiter-Glo), HEPG2
Format: cell-based, human
Settings: 120 μM, CellTiter-Glo
assay_endpoint: Cell viability (%) HEPG2 120 μM

Give its Cell viability (%) HEPG2 120 μM value. Item: C#Cc1ccc2c(c1)C(c1ccccn1)=N[C@H](C)c1c(-c3nc(CC)no3)ncn1-2 [GL-III-97]
100 ± 12%

Give its Cell viability (%) HEPG2 120 μM value. Item: C#Cc1ccc2c(c1)C(c1ccccc1)=NCc1c(C(=O)NC)ncn1-2 [YT-III-31]
100 ± 7%

Give its Cell viability (%) HEPG2 120 μM value. Item: C#Cc1ccc2c(c1)C(c1ccccc1F)=N[C@H](C)c1c(C(=O)NC(C)C)ncn1-2 [GL-III-66]
86 ± 8%

Give its Cell viability (%) HEPG2 120 μM value. Item: O=C(O)c1ncn2c1CN=C(c1ccccc1)c1cc(Br)ccc1-2 [GL-I-50]
100 ± 2%

Give its Cell viability (%) HEPG2 120 μM value. Item: CCOC(=O)c1ncn2c1[C@@H](C)N=C(c1ccccn1)c1cc(C#C[Si](C)(C)C)ccc1-2 [GL-II-18]
100 ± 8%

Give its Cell viability (%) HEPG2 120 μM value. Item: Cc1noc(-c2ncn3c2[C@@H](C)N=C(c2ccccc2F)c2cc(Br)ccc2-3)n1 [GL-III-60]
100 ± 11%

Give its Cell viability (%) HEPG2 120 μM value. Item: Cc1noc(-c2ncn3c2[C@@H](C)N=C(c2ccccn2)c2cc(C4CC4)ccc2-3)n1 [GL-III-64]
75 ± 10%

Give its Cell viability (%) HEPG2 120 μM value. Item: C#Cc1ccc2c(c1)C(c1ccccc1)=NCC(=O)N2C [QH-II-66]
100 ± 4%
